Please respond with reported normalized growth for every item in the list.
Test name: chemical genetic growth profiling, strain panel (AID 1159580);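 also: tested at 20 µM; growth read once vehicle control cultures reached saturation at 30 °C; 1 = growth at the plate median or of vehicle wells; lower values mean less growth of the strain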
Settings: S. cerevisiae deletion strains, growth OD, locus YNL197C, strain WHI3, hits give low values
Among all 5,500 compounds or so, about 2,000 (36%) were called active. Not shown: some 18% with an inconclusive outcome. This is one part of the list.
Form: value (number only, do not type unit).

Input line: Note normalized growth for the molecule shown: C1CCc2nnnn2CC1
Output line: 1.01

Input line: Note normalized growth for the molecule shown: CCCN1CCC[C@@H]2Cc3nc(N)ncc3C[C@H]21
Output line: 1.01

Input line: Note normalized growth for the molecule shown: CCOC(=O)C1=C(C)NC(=S)NC1c1cccc(O)c1 (centres undefined)
Output line: 0.99

Input line: Note normalized growth for the molecule shown: COc1ccccc1N1CCN(CCCCNC(=O)c2ccc3ccccc3c2)CC1
Output line: 1.01

Input line: Note normalized growth for the molecule shown: CCC1(c2ccc(N)cc2)CCC(=O)NC1=O (centres undefined)
Output line: 0.987

Input line: Note normalized growth for the molecule shown: c1ccc2cc(CC3=NCCN3)ccc2c1
Output line: 1.02

Input line: Note normalized growth for the molecule shown: COC(=O)c1c(C)[nH]c(C)c1C(=O)c1ccccc1Cc1ccccc1
Output line: 0.983

Input line: Note normalized growth for the molecule shown: NC/C=C/C(=O)O
Output line: 0.996

Input line: Note normalized growth for the molecule shown: Nc1nc2[nH]c(=O)cnc2c(=O)[nH]1
Output line: 0.977

Hey, just so you know, these numbers are from PubChem BioAssay AID1159580.
